Each entry below carries its recorded TGI.
system: KM20L2 colon; test: NCI tumour cell line growth inhibition, 48 h
Give just the numeric value; µM need not be written.

[[record]]
given_smiles = "NCCNCc1c2ccccc2c(CNCCN)c2ccccc12"
value = 74.1


Enquiry: Hello, I am looking for reported TGI with KM20L2 colon for `Cc1ccc(NC(=O)/C(Cl)=C(/Cl)C(=O)O)cc1` . Could you help?
Return: 40.3

###

test system: COLO 205 colon; assay: NCI tumour cell line growth inhibition, 48 h
Each entry below carries its recorded TGI.

Enquiry: Return reported TGI; argument: `O=C(c1ccc(Cl)cc1)N(C(=S)OCc1ccccn1)c1ccccc1`
Return: > 100 µM

Enquiry: Return reported TGI; argument: `O=c1oc2ccc(Br)cc2c(=O)n1-c1ccc(I)cc1F`
Return: 15.1 µM

Enquiry: Return reported TGI; argument: `COC(=O)/C=C/C1(O)C=CC(=O)C=C1`
Return: 23.4 µM

Enquiry: Return reported TGI; argument: `COc1ccc(C(=O)/C=C/c2ccc(OCCSCCCCCCCCCCSCCOc3ccc(/C=C/C(=O)c4ccc(OC)c(OC)c4)cc3)cc2)cc1OC`
Return: > 100 µM

Enquiry: Return reported TGI; argument: CCCCCC/C=C1\CCC(CN2CCOCC2)C1=O (configuration not stated)
Return: 32.3 µM

Enquiry: Return reported TGI; argument: O=C(CNC(c1ccccc1)(c1ccccc1)c1ccccc1)NC1CCCCC1NC(=O)CNC(c1ccccc1)(c1ccccc1)c1ccccc1 (configuration not stated)
Return: > 100 µM

Enquiry: Return reported TGI; argument: `O=C(OCc1ccccc1)N(CCCCN(CCCNCc1ccccc1)C(=O)OCc1ccccc1)CCCNCc1ccccc1`
Return: 0.33 µM

Every entry's value here was drawn from PubChem BioAssay (NCI).
